What Kd was measured for each of the following?
Molecular target: T1, GFP-9S library array, motif 4 ND N98V;D124L (synthetic construct, N98V;D124L)
T1 chain: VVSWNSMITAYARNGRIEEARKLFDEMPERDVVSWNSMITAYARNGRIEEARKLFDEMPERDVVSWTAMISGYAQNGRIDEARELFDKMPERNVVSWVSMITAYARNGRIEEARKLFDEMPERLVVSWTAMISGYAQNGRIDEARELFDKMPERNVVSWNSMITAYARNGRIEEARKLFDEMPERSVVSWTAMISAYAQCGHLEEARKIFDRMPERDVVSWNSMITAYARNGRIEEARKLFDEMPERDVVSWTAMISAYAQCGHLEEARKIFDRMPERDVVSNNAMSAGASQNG
Assay: high-throughput RNA pulldown from lysate on Ni-NTA beads; HRP: 50 mM Tris pH 8, 150 mM NaCl, 1 mM beta-mercaptoethanol, 50 ug/ml BSA, 3 ug/ml yeast RNA, 0.5% heparin; ITC and FP: Tris pH 8, 200 mM KCl, 5% glycerol; MST: 50 mM Tris pH 8, 200 mM NaCl, 1 mM DTT, BSA, heparin, 0.05% Tween 20
Details: tags: N-terminal His-eGFP; label: 5' IRDye 800CW
Return type: number; implicit unit nM.

Data request: Could you share which Kd value was measured for AUUAAACGUGA (ssRNA) [IR-rpoA-A] ?
Data returned: 199

Data request: Could you share which Kd value was measured for AUUAUACGUGA (ssRNA) [IR-rpoA-U] ?
Data returned: 126
